Source: ChEMBL document CHEMBL4390647

Test system: Staphylococcus aureus
procedureText: Antibacterial activity against Staphylococcus aureus MRSA198 clinical isolate-1 measured after 18 to 20 hrs by microbroth dilution method
Format: functional
measurementParameters: MRSA198 isolate-1
property: log10 MIC (log10 of the value in µM)
Would you kindly interpret these values as log10 of MIC expressed in µM?

CC(=O)OC[C@H]1O[C@@H](n2cc(COc3ccc4c(c3)OC(N)=C(C#N)C4c3cccc(Cl)c3)nn2)[C@H](OC(C)=O)[C@@H](OC(C)=O)[C@@H]1OC(C)=O (stereo partly drawn) | 0.49
CN[C@H](CC(C)C)C(=O)N[C@H]1C(=O)N[C@@H](CC(N)=O)C(=O)N[C@H]2C(=O)N[C@H]3C(=O)N[C@H](C(=O)N[C@H](C(=O)O)c4cc(O)cc(O)c4-c4cc3ccc4O)[C@H](O)c3ccc(c(Cl)c3)Oc3cc2cc(c3O[C@@H]2O[C@H](CO)[C@@H](O)[C@H](O)[C@H]2O[C@H]2C[C@](C)(N)[C@H](O)[C@H](C)O2)Oc2ccc(cc2Cl)[C@H]1O | 0.19

// query Using known records, supply log10 MIC for CC(=O)OC[C@H]1O[C@@H](n2cc(COc3ccc4c(c3)OC(N)=C(C#N)C4c3ccc(Cl)cc3)nn2)[C@H](OC(C)=O)[C@@H](OC(C)=O)[C@@H]1OC(C)=O (stereo partly drawn)
// result 2.30

// query Using known records, supply log10 MIC for CC(=O)OC[C@H]1O[C@@H](n2cc(COc3ccc4c(c3)OC(N)=C(C#N)C4c3ccccc3)nn2)[C@H](OC(C)=O)[C@@H](OC(C)=O)[C@@H]1OC(C)=O (stereo partly drawn)
// result 2.60

// query Using known records, supply log10 MIC for CC(=O)OC[C@H]1O[C@@H](n2cc(COc3ccc4c(c3)OC(N)=C(C#N)C4c3ccc([N+](=O)[O-])cc3)nn2)[C@H](OC(C)=O)[C@@H](OC(C)=O)[C@@H]1OC(C)=O (stereo partly drawn)
// result 2.60

// query Using known records, supply log10 MIC for CC(=O)OC[C@H]1O[C@@H](n2cc(COc3ccc4c(c3)OC(N)=C(C#N)C4c3ccc(Br)cc3)nn2)[C@H](OC(C)=O)[C@@H](OC(C)=O)[C@@H]1OC(C)=O (stereo partly drawn)
// result 1.10

// query Using known records, supply log10 MIC for CC(=O)OC[C@H]1O[C@@H](n2cc(COc3ccc4c(c3)OC(N)=C(C#N)C4c3cccc(Cl)c3Cl)nn2)[C@H](OC(C)=O)[C@@H](OC(C)=O)[C@@H]1OC(C)=O (stereo partly drawn)
// result 2.30
